Cholinesterase (Homo sapiens) measurements of pKi, listed per entry.
Sequence (P06276 whole entry): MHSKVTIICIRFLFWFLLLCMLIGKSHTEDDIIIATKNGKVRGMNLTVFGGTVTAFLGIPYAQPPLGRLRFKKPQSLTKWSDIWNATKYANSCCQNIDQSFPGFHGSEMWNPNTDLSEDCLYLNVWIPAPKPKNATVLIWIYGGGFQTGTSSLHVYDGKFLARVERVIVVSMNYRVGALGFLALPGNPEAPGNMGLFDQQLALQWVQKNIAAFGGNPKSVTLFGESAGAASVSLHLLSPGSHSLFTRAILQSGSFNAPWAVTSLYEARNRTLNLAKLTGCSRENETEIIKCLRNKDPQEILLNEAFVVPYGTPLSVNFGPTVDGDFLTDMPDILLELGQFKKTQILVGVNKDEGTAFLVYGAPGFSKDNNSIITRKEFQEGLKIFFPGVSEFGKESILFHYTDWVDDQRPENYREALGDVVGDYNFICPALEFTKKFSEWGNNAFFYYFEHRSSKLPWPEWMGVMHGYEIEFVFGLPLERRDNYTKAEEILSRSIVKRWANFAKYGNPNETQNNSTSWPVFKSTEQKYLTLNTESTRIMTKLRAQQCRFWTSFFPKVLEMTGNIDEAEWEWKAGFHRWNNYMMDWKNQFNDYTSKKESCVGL
pKi: −log10 of the molar value.

COMPOUND: C/C=C1\[C@H]2C=C(C)C[C@]1(N)c1ccc(=O)[nH]c1C2
BOUND_SIGN: <
pKi: 6.00

COMPOUND: C/C=C1\C2C=C(C)C[C@]1(N)CC(NCCCCCCCNc1c3c(nc4ccccc14)CCCC3)C2 (stereo partly drawn)
BOUND_SIGN: =
pKi: 7.51

COMPOUND: C/C=C1\C2C=C(C)C[C@]1(N)CC(NCCCCCCCNc1c3c(nc4ccccc14)CCCC3)C2(C)C (stereo partly drawn)
BOUND_SIGN: =
pKi: 7.68
